Numbers sourced from patent US20250161290A1.

Assay: Coformer solubility assessment in organic solvents (qualitative)
Format: physicochemical
Conditions: organic solvent or mixture, thermodynamic from solid; ethyl acetate; gentle heating 45° C. if required
PROPERTY LABEL: solubility

Below are worked cases with known answers.
> print(dat)
                              compound  readout.value
1  O=C1NS(=O)(=O)c2ccccc21 [saccharin]       > 200 mM
2          COc1cc(C=O)ccc1O [vanillin]       > 200 mM

Here's the next entry for you.
**Query** Report solubility, nothing else, for this compound: NC(=O)c1cccnc1 [nicotinamide]
**Result** > 50 mM

---

Experiment: Solubility assessment of CSP-1103 in organic solvents (qualitative)
Type: physicochemical
Details: ethanol, organic solvent or mixture, thermodynamic from solid, qualitative solubility at 0.2 M; gentle heating 45° C. 1 minute if required
PROPERTY LABEL: solubility

**Query** Report solubility, nothing else, for this molecule: O=C(O)C1(c2ccc(-c3ccc(Cl)c(Cl)c3)c(F)c2)CC1 [CSP-1103]
**Result** < 200 mM
